- target desc: T1, 4H3606-AA
- T1 chain: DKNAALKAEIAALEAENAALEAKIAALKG
- assay explanation: two-hybrid library CCmax;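 also: natural log of median RNA to DNA barcode read ratio; higher means stronger binding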
- assay context: mean of both orientations
Assign Yes whenever interaction score does not fall below -0.3; assign No whenever it does.

Check this binder for interaction score at or above -0.3: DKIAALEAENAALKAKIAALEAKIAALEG [4H2277-AA]
No

Does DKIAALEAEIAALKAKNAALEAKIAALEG [4H2165-AA] have a reported interaction score of at least -0.3?
No

Could you verify whether the entry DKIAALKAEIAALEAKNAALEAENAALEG [4H2611-AA] shows interaction score of no less than -0.3?
No

Would you say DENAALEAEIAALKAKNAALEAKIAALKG [4H1142-AA] shows interaction score at minimum -0.3?
Yes

Quick check, interaction score >= -0.3? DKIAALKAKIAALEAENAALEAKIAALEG [4H2837-AA]
No

Evaluate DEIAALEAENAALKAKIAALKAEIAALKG [4H234-AA] : interaction score at minimum -0.3?
No
